Answer each item with its documented Pre-emergence action against KCHSC.
Test system: Bassia scoparia
Assay: Pre-emergence herbicidal effect against KCHSC
Assay type: in vivo
Conditions: 1280 g/ha, visual score after 3 weeks, 100% = plants have died, 0% = like control plants

Return Pre-emergence action against KCHSC for the following molecule: CCOC(=O)C[S+]([O-])c1nn(-c2ccccc2F)c(-c2cncc(Cl)c2)c1Br (centres unmarked) 90%

Return Pre-emergence action against KCHSC for the following molecule: `O=C(O)CSc1nn(-c2ccccc2F)c(-c2cncc(F)c2)c1Br` 90%

Return Pre-emergence action against KCHSC for the following molecule: `O=C(O)CSc1nn(-c2ccccc2F)c(-c2ccc(F)c(F)c2)c1Cl` 90%

Return Pre-emergence action against KCHSC for the following molecule: `COC(=O)CCNC(=O)CSc1nn(-c2ccccc2F)c(-c2cncc(F)c2)c1Br` 90%

Return Pre-emergence action against KCHSC for the following molecule: `CCOC(=O)CSc1nn(-c2cc(F)ccc2F)c(-c2ccc(F)c(F)c2)c1Br` 90%

Return Pre-emergence action against KCHSC for the following molecule: CCOC(=O)C(C)Sc1nn(-c2ccccc2F)c(-c2ccc(F)c(F)c2)c1Br (centres unmarked) 100%

Return Pre-emergence action against KCHSC for the following molecule: `CCOC(=O)CSc1nn(-c2ccc(F)cc2)c(-c2ccc(F)cc2)c1Br` 100%

Return Pre-emergence action against KCHSC for the following molecule: `CCOC(=O)CSc1nn(-c2ccccc2F)c(-c2cncc(Cl)c2)c1Br` 100%
